All figures here come from ChEMBL document CHEMBL4321832.

# System: A549
# experimentDescription: Antiproliferative activity against human A549 cells assessed as reduction in cell viability incubated for 24 hrs by BrdU based ELISA
# Type: functional
# measurementConditions: A549, 24 h
observedProperty: EC50

Ask: I would be grateful if you could share the reported EC50 for O=C(N[C@@H](Cn1ccnc1)c1ccc(-c2ccc(F)cc2)cc1F)c1ccc(-c2nnc(-c3ccccc3)o2)cc1 .
Result: 10 to 30 µM

###

I'd appreciate it if you could supply inhibition at 1 h values for the items below.
# targetUnderTest: CYP51 (lanosterol 14-alpha demethylase) (Homo sapiens, UniProt Q16850)
# Sequence (Q16850 whole entry): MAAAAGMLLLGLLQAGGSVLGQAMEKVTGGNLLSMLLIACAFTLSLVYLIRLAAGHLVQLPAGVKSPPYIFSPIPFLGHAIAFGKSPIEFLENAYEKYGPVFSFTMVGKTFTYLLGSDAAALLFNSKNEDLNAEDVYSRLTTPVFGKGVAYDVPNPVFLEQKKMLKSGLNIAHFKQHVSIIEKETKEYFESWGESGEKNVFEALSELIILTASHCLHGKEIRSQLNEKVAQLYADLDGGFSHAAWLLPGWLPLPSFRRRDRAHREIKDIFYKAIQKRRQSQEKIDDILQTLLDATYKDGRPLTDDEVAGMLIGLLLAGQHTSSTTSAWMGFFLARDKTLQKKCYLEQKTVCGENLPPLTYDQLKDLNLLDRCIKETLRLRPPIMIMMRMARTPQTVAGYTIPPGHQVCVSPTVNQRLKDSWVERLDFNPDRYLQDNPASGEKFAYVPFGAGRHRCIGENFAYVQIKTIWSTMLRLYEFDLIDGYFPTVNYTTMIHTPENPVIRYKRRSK
# experimentDescription: Inhibition of recombinant full length human CYP51 expressed in Escherichia coli at inhibitor/enzyme ratio 50/1 incubated for 1 hr using [3H] lanosterol as substrate by HPLC analysis relative to control
# Design: concentration or dose not given beside the values
# measurementConditions: probe [3H] lanosterol
One number for each entry, in %.

# count of solved cases: 3
{"molecularString": "O=C(N[C@@H](Cn1ccnc1)c1ccc(-c2ccc(F)cc2)cc1-c1ccco1)c1ccc(-c2nnc(-c3ccccc3)o2)cc1", "targetUnderTest": "CYP51 (lanosterol 14-alpha demethylase) (Homo sapiens, UniProt Q16850)", "recordedResult": 8}
{"molecularString": "O=C(N[C@@H](Cn1ccnc1)c1ccc(-c2ccc(F)cc2)c2ccccc12)c1ccc(-c2nnc(-c3ccccc3)o2)cc1", "targetUnderTest": "CYP51 (lanosterol 14-alpha demethylase) (Homo sapiens, UniProt Q16850)", "recordedResult": 1}
{"molecularString": "O=C(N[C@@H](Cn1ccnc1)c1ccc(-c2ccc(F)cc2)cc1F)c1ccc(-c2nnc(-c3ccccc3)o2)cc1", "targetUnderTest": "CYP51 (lanosterol 14-alpha demethylase) (Homo sapiens, UniProt Q16850)", "recordedResult": 64}

# evaluate next
Ask: Item O=C(N[C@@H](Cn1ccnc1)c1ccc(-c2ccc(F)cc2)cc1Cl)c1ccc(-c2nnc(-c3cc(-c4ccccn4)ccc3F)o2)cc1 has what recorded inhibition at 1 h?
Result: 93

###

# experimentDescription: Lipophilicity, logP of compound
# Format: physicochemical
# measurementConditions: octanol/water; read-out: logP
observedProperty: logP
Give bare numbers.

Past entries and their recorded results:
{"molecularString": "O=C(N[C@@H](Cn1ccnc1)c1ccc(-c2ccc(F)cc2)cc1-c1ccccc1)c1ccc(-c2nnc(-c3ccccc3)o2)cc1", "logP": 5.3}
{"molecularString": "O=C(N[C@@H](Cn1ccnc1)c1ccc(-c2ccc(F)cc2)cc1Cl)c1ccc(-c2nnc(-c3cc(F)cc(-c4ncncc4F)c3)o2)cc1", "logP": 6.3}
{"molecularString": "O=C(N[C@@H](Cn1ccnc1)c1ccc(-c2ccc(F)cc2)cc1F)c1ccc(-c2nnc(-c3ccccc3)o2)cc1", "logP": 5.4}
{"molecularString": "CS(=O)(=O)c1cc(-c2ccccn2)cc(-c2nnc(-c3ccc(C(=O)N[C@@H](Cn4ccnc4)c4ccc(-c5ccc(F)cc5)cc4Cl)cc3)o2)c1", "logP": 5.3}

Provide the reported logP of each entry below, same order.
1. COc1ccc(-c2cc(-c3ccc(F)cc3)ccc2[C@H](Cn2ccnc2)NC(=O)c2ccc(-c3nnc(-c4ccccc4)o3)cc2)cc1
2. O=C(N[C@@H](Cn1ccnc1)c1ccc(-c2ccc(F)cc2)cc1Cl)c1ccc(-c2nnc(-c3cc(-c4ccccn4)ccc3F)o2)cc1
3. O=C(N[C@@H](Cn1ccnc1)c1ccc(-c2ccc(F)cc2)cc1Cl)c1ccc(-c2nnc(-c3cc(F)cc(-c4ccccn4)c3)o2)cc1
4. O=C(N[C@@H](Cn1ccnc1)c1ccc(-c2ccc(F)cc2)c2ccccc12)c1ccc(-c2nnc(-c3ccccc3)o2)cc1

Result:
1. 5.8
2. 6.8
3. 6.8
4. 5.8
